Assay: DPPH free-radical scavenging assay
Assay type: biochemical
Details: 300 μM DPPH in methanol, room temperature, 30 min, read at 517 nm; mean of 3 observations
measure-name: IC50 (μg/mL), concentration of sample required to scavenge 50% DPPH free radicals (µg/mL)
Reply with just the number (in µg/mL).

Answered cases to consult:
molecule	result-value
CCCOC(=O)c1cc(O)c(O)c(O)c1 [Propyl gallate]	9.8
CC1(C)CCCC23C(=O)OC(CC12)c1cc(C(CO)CO)c(O)c(O)c13 (stereo not shown)	23.9
CC(C)c1cc2c(c(O)c1O)[C@@]1(C(=O)O)CCCC(C)(C)[C@@H]1CC2	18.7
Oc1cccc(O)c1O	4.8
COc1c(C(C)C)cc2c(c1O)C1(CO)CCCC(C)(C)C1CC2 (stereo not shown)	27.7
O=C1O[C@H]([C@@H](O)CO)C(O)=C1O	11.8

Turning now to a further molecule:
Q) IC50 (μg/mL), concentration of sample required to scavenge 50% DPPH free radicals for CC(C)c1cc2c(c(O)c1O)[C@@]13CCCC(C)(C)[C@@H]1C[C@@H]2OC3=O ?
A) 37.9
